Data origin: patent US20110250613A1

Molecular target: T1, K48-Ub2 (Homo sapiens, UniProt P0CG47, K48R)
T1 construct: Ub and K48- and K63-linked diUb and tetraUb were made as described; made in house
Test: Fluorescence anisotropy binding of fluorescent tUIM peptides to K48-Ub2
Conditions: single-site fit, 25° C., pH 7.4
pKd: −log10 of the molar value.
Assay readout: pKd

Rap80 DLKAAIQ: Rap80 tUIM peptide, linker DLKAAIQ (protein) peptide: PSSHHHHHHSSGLVPRGSHMTEEEQFALALKMSEQEADLKAAIQEEEEELLRKAIAESLNSCRPS ... 3.89
ataxin-3 7A linker: ataxin-3 UIMs joined by a 7-alanine linker (protein) peptide: PSSHHHHHHSSGLVPRGSHMDEDEEDLQRALALSRQEIAAAAAAAEDEEADLRRAIQLSMQGSSRNC ... 3.85
ataxin-3 Rap80 linker: ataxin-3 UIMs spliced together with the Rap80 linker REVNSQE (protein) peptide: PSSHHHHHHSSGLVPRGSHMDEDEEDLQRALALSRQEIREVNSQEEDEEADLRRAIQLSMQGSSRNC ... 3.80
Rap80 6aa linker: Rap80 tUIM peptide with 6-residue linker REVAAE (protein) peptide: PSSHHHHHHSSGLVPRGSHMTEEEQFALALKMSEQEAREVAAEEEEEELLRKAIAESLNSCRPS ... 3.80
